- testSummary: physchem
- testSettings: 25 °C, water
property: solubility

INPUT: Specify measured solubility for CCOP(=O)(OCC)OCC [TEP, Triethyl phosphate] .
OUTPUT: > 3000 µg/mL
